Quick reference for T/C among some molecules
Test system: CD2F1 mice, L1210 leukemia ip, survival T/C
Test: NCI In Vivo Anticancer Drug Screen. Data for tumor model L1210 Leukemia (intraperitoneal) in CD2F1 (CDF1) mice
Conditions: endpoint: mean survival time; dose: 6.25 mg/kg/injection; schedule: Q04DX003 (ip); vehicle: distilled water + Tween-80; higher = longer survival
Toxic doses and inconclusive results are not listed.

// solved cases for T/C follow
{"compound": "CCOc1ccc2nc([NH-])sc2c1.CCOc1ccc2nc([NH-])sc2c1.[Cl][Pt+2][Cl]", "T/C": "96 % of control"}
{"compound": "[I][Pt+2][I].[NH-]N1CCN([NH-])CC1", "T/C": "100 % of control"}
{"compound": "O=c1[nH]cc(N=Cc2ccccc2Cl)c(=O)[nH]1.[Cl][Pt][Cl]", "T/C": "97 % of control"}

Query: Can you share its T/C? I mean this molecule: `[Br][Pt+2][Br].[NH-]c1ccc(F)cc1.[NH-]c1ccc(F)cc1`
Response: 104 % of control
